- Test system: K562
- method: Cytotoxicity against human K562 cells after 48 hrs by MTT assay
- Type: functional, cell-based
- experimental-setup: K562, 48 h
For each entry below, report its IC50 value.
A bare number is not enough; add the unit after it.

Query: What does the data say about its IC50? Entry: CC(=O)OCC(C)C1=C(OC(C)=O)C(=O)C2=C(C(=O)C(O)=C3C(C)(C)CCC[C@]23C)C1=O (stereo partly specified)
Response: 12.9 µg/mL

Query: What does the data say about its IC50? Entry: O=C1c2c(O)ccc(O)c2C(=O)c2c(NCCNCCO)ccc(NCCNCCO)c21
Response: 2 µg/mL

Query: What does the data say about its IC50? Entry: CC(=O)Oc1c(O)c(C(C)C)c(O)c2c1[C@@]1(C)CCCC(C)(C)C1=C(O)C2=O
Response: 2.2 µg/mL

Query: What does the data say about its IC50? Entry: CC(C)C1=C(O)C(=O)C2=C(C(=O)C(O)=C3C(C)(C)CCC[C@]23C)C1=O
Response: 3 µg/mL

Query: What does the data say about its IC50? Entry: CC(C)C1=C(O)C(=O)C([C@@]2(C)CCCC(C)(C)C2=O)=C(C(=O)O)C1=O
Response: 34.3 µg/mL

Query: What does the data say about its IC50? Entry: CC(C)C1=C(O)C(=O)[C@@]23O[C@@]2(C(=O)C(O)=C2C(C)(C)CCC[C@@]23C)C1=O
Response: 13.9 µg/mL

Sourced from ChEMBL document CHEMBL1148132
